Hey, just so you know, these numbers are from patent US20240148821A1.

Target: protein-protein interaction between Kras and SOS1 (biotin-tagged human Kras loaded with GDP, His-tagged human SOS1) (Homo sapiens (Human), UniProt P01116, G12D)
Experiment: Protein-protein interaction inhibition between Kras and SOS1 (KrasG12D-SOS PPI) using AlphaScreen;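 also: kras produced in E. coli, Ni-coupled donor beads and streptavidin acceptor beads, excitation 680 nm with emission detected at 520–620 nm via singlet oxygen transfer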
Assay type: biochemical
Settings: AlphaScreen; biotin-tagged human Kras loaded with GDP, His-tagged human SOS1; read-out: KRAS G12D-SOS PPI IC50
Bridge positions count the residues as written; N and C are the ends. Square brackets hold non-standard residues; d marks the D form. Peptide text beside a SMILES is read from it. * marks the point of attachment. hPhe(3-Cl-4-CF3) = N[C@@H](CCc1ccc(C(F)(F)F)c(Cl)c1)C(=O)O; NMeCha = CN[C@@H](CC1CCCCC1)C(=O)O; NMeI = CC[C@H](C)[C@H](NC)C(=O)O; NMeD = CN[C@@H](CC(=O)O)C(=O)O; NMeL = CN[C@@H](CC(C)C)C(=O)O; NMeA = CN[C@@H](C)C(=O)O; Pyrrolidide = C1CCN(*)C1; Ac5c = NC1(C(=O)O)CCCC1; Aze = O=C(O)[C@@H]1CCN1; Sar = CNCC(=O)O

{"columns": ["COMPOUND", "IC50 [nM]"],
 "data": [
  ["CC[C@H](C)[C@@H]1NC(=O)[C@H](CC(C)C)N(C)C(=O)C[C@@H](C(=O)N2CCCC2)N(C)C(=O)[C@H]([C@@H](C)CC)N(C)C(=O)C2(CCCC2)NC(=O)[C@@H]2CCCN2C(=O)[C@H](CCc2ccc(C(F)(F)F)c(Cl)c2)NC(=O)CN(C)C(=O)[C@H](CC2CCCCC2)N(C)C(=O)[C@@H]2CCN2C(=O)[C@H](C)N(C)C1=O [Compound 1843] ([NMeL]I[NMeA][Aze][NMeCha][Sar][hPhe(3-Cl-4-CF3)]P[Ac5c][NMeI][NMeD]-Pyrrolidide; lactam N-11)", 0.84]
]}
